# subject_of_test: T1, Rad4-Rad23 delta-beta-hairpin3 (<137>) (UniProt P14736;P32628 101-598+606-632;1-77+230-398, internal_change;internal_change)
# T1 sequence 1: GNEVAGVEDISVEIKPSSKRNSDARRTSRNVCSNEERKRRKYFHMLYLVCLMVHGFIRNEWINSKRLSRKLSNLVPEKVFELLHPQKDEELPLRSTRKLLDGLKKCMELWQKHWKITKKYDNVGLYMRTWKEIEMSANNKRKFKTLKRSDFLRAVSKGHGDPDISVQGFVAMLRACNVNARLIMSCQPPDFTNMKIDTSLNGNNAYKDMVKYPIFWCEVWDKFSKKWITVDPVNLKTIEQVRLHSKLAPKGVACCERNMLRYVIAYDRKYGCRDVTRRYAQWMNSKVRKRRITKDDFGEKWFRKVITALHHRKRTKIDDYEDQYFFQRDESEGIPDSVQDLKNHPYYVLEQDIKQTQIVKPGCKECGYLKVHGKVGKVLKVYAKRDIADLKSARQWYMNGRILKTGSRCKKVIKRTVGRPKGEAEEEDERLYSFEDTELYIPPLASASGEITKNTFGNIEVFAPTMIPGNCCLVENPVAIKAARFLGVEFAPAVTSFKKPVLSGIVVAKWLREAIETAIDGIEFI
# T1 sequence 2: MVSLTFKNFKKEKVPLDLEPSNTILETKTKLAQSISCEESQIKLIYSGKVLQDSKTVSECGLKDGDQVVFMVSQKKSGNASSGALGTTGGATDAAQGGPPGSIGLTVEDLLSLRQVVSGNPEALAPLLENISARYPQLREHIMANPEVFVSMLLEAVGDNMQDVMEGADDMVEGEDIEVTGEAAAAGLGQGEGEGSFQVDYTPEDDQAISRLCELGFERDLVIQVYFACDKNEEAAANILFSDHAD
# assay_summary: competitive EMSA; apparent Kns; 1000 nM cold CH7_NX competitor; EMSA: 5 mM BTP-HCl pH 6.8, 75 mM NaCl, 5 mM DTT, 5% glycerol, 0.74 mM CHAPS, 500 ug/ml BSA, room temperature 20 min, 5 nM labeled DNA, 1000 nM cold CH7_NX
# test_conditions: protein: recombinant; tags: N-terminal His tag on Rad4; copies: 1;1; label: 32P; fully matched; 5' overhang 1 nt at both ends
pKd: −log10 of the molar value.
reported_endpoint: pKd

>>> experimental_result("CCC/GGG matched (dsDNA) DNA 1: TTGACTCGACATCCCCCGCTACAA DNA 2: ATTGTAGCGGGGGATGTCGAGTCA")
"~6.29"
